Target: human DNA polymerase alpha (Homo sapiens)
Sequence (P09884 whole entry): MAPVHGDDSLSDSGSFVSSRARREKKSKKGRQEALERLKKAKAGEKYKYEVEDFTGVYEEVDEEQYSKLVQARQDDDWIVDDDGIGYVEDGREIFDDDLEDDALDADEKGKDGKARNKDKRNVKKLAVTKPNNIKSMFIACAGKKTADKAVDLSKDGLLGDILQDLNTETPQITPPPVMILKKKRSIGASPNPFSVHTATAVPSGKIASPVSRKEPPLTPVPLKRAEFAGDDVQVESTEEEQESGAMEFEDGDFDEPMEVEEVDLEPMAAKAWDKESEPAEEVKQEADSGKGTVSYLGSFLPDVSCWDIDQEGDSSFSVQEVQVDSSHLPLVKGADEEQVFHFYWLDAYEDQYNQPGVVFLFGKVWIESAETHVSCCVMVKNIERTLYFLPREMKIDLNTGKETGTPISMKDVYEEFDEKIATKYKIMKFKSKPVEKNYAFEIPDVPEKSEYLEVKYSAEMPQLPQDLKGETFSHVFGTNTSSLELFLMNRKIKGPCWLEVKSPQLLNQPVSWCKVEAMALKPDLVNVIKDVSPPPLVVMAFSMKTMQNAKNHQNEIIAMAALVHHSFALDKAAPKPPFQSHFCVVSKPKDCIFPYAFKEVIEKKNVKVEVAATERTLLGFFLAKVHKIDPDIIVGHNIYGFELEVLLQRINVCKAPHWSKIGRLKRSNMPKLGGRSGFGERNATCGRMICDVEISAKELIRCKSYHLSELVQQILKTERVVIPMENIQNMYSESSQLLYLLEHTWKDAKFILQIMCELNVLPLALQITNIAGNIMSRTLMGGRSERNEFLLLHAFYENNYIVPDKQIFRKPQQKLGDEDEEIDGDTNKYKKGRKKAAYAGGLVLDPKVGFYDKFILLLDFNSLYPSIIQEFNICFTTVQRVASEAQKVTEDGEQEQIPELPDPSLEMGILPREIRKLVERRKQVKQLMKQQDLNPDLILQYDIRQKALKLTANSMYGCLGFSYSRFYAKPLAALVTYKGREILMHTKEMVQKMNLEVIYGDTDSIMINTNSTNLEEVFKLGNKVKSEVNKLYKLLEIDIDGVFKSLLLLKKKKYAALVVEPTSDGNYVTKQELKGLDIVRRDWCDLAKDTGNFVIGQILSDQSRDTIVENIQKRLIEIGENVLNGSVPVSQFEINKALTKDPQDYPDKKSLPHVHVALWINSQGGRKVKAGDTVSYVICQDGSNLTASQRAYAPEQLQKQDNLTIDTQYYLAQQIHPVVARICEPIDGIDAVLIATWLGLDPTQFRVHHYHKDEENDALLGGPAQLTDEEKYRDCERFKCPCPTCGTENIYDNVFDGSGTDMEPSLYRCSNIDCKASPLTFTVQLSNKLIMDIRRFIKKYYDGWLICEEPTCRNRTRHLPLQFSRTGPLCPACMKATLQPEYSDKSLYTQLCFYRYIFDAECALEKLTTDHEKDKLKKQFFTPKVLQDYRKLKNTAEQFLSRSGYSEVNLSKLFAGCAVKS
Test: Human cellular DNA polymerase alpha assay
Format: biochemical
Conditions: Table 6; N=4; read-out: Mean IC50 Values ± Standard Deviation, DNA Pol Alpha
Description: HIV RT, like other viral polymerase, shares limited structural homology with the cellular DNA polymerases responsible for normal nuclear and mitochondrial DNA synthesis and repair. This raises the formal possibility that inhibitors of HIV RT might inhibit cellular polymerases, resulting in cellular toxicity. […] The ability of Compound I and Compound III to inhibit cellular DNA polymerases was assessed using standard in vitro assays (Table 5).
*1 amine or outer side, *2 acyl side, *3 side chain or, on linkers, in order; H or OH if unused. Where a SMILES comes first, the peptide text is derived from it. Bridges are numbered along the chain shown (N, C = ends). Roman numbers before positions name the chains, in order. [ ]: non-standard residue; d: D form. Actinocin(9to1) = Cc1c2oc3c(C)ccc(C(=O)[*:1])c3nc-2c(C(=O)[*:2])c(N)c1=O; NMeV = CN[C@H](C(=O)O)C(C)C; Sar = CNCC(=O)O

compound	assayed.target	unit.text	IC50
O=C1Nc2ccc(Cl)cc2C(C#CC2CC2)(C(F)(F)F)O1 (centres unmarked) [EFV, reference compound]	human DNA polymerase alpha (Homo sapiens)	µM	109
Cc1c2oc3c(C)ccc(C(=O)N[C@@H]4C(=O)N[C@H](C(C)C)C(=O)N5CCC[C@H]5C(=O)N(C)CC(=O)N(C)[C@@H](C(C)C)C(=O)O[C@@H]4C)c3nc-2c(C(=O)N[C@@H]2C(=O)N[C@H](C(C)C)C(=O)N3CCC[C@H]3C(=O)N(C)CC(=O)N(C)[C@@H](C(C)C)C(=O)O[C@@H]2C)c(N)c1=O [Act. D, actinomycin D, reference compound] (I: T[dV]P[Sar][NMeV] / II: T[dV]P[Sar][NMeV]; ester I:1-I:C, II:1-II:C; linker I:N-II:N via Actinocin(9to1))	human DNA polymerase alpha (Homo sapiens)	µM	16.1

All figures here come from patent US8486991B2.
